FYI, the data here is from patent US20250099420A1.

# Tested on: parental HEK cells
# experiment: HEK parental Agonist Counterscreen Assay (non-transfected cells)
# Assay type: cell-based
# assay_conditions: HEK Agonist Activity section of Table 4 (parental HEK counterscreen)
In this section we review reported EC50 values for a set of compounds.

compound: Cc1ccc(C(=O)NNC(=O)CSc2nnc(Cn3cnc4ccccc43)o2)cc1 [SR-01000337370]
result: > 14.1 µM

compound: CC(C)C(C)(C#N)NC(=O)CSc1nnc(Cc2cccc3ccccc23)n1N (centres unmarked) [SR-01000052065]
result: > 15.2 µM

compound: O=C(CCS(=O)(=O)c1cccc2nonc12)NCCc1ccc(Cl)cc1 [SR-01000119565]
result: > 14.1 µM

compound: COc1ccc(CCNC(=O)c2cncc(-c3csc4ccccc34)c2)cc1 [SR-01000654639]
result: > 14 µM

compound: COc1ccc(CCNC(=O)c2ccnc(N3CCN(Cc4ccc5c(c4)OCO5)CC3)c2)cc1 [SR-01000654192]
result: > 13.3 µM

compound: O=C(CN1CCCN(Cc2ccc(F)cc2Cl)C1=O)NC1CCCCC1 [SR-01000146448]
result: > 14.1 µM

compound: CCn1c2ccccc2c2cc(C3C(C#N)=C(N)Oc4n[nH]c(C)c43)ccc21 (centres unmarked) [SR-01000465824]
result: > 11.8 µM

compound: O=C(CN1CCN(Cc2ccccc2Cl)C1=O)NC1CCCCCC1 [SR-01000125460]
result: > 14.1 µM

compound: C=CCC(O)(CC=C)C(C)NC(=O)CCC1(Cc2ccc3ccccc3c2)CCC(=O)N1 (centres unmarked) [SR-01000190122]
result: > 14.1 µM

compound: CC1=NNC(=O)C1CC(=O)N/N=C/c1cccc2ccccc12 (centres unmarked) [SR-01000080433]
result: > 14.1 µM

Next up:
Please report the recorded EC50 for N#C/C(=C/c1ccc(CNS(=O)(=O)c2ccccc2)o1)C(=O)NCCc1ccccc1 [SR-01000318079] .
> 14.1 µM
